Listing: growth of selected molecules
- System: NCI-H226 lung
- assay.remarks: NCI-60 one-dose screen, 48 h (100 = growth as untreated, 0 = no growth, -100 = all killed)
- experimental.context: 10 µM unless noted
The panel holds about 83,000 compounds, 20% with a hit somewhere; the sample as a whole holds those more often.
measured.endpoint: growth (%)

>>> df
                               smiles_entry  measured_endpoint  assay_result
0  N/N=C(\N)c1c(N)nc(=S)[nH]c1-c1ccc(Cl)cc1Cl             growth           106
1  COc1cc2oc(-c3cccc(C(=O)Nc4ccc(Cl)cc4)c3)cc(=O)c2c(OCCNC(=O)[C@H](CO)NC(=O)OC(C)(C)C)c1OC             growth            42
2  COc1ccc2c(c1)c(/C=N/Nc1ccc3ccccc3n1)cn2C             growth          32.9
3  CN1CCN(Cc2ccc(C(=O)Nc3cccc(C#Cc4cccc5[nH]nc(N)c45)c3)cc2C(F)(F)F)CC1             growth           -84

====

- Tested on: SK-MEL-2 melanoma
- assay.remarks: NCI-60 one-dose screen, 48 h (100 = growth as untreated, 0 = no growth, -100 = all killed)
- experimental.context: 10 µM unless noted
Compounds without any hit were thinned out: in the full panel of roughly 83,000, 20% have a hit.
Listing: growth of selected molecules
measured.endpoint: growth (%)

                                    molecule  assay_result
 0  CCN(CC)c1ccnc(CNCCSC(c2ccccc2)(c2ccccc2)c2ccc(OC)cc2)c1         -35.8
 1  COc1ccc(N2N=C(c3ccc4c(c3)OCO4)CC2c2cccc(NC(=O)CCCNS(=O)(=O)c3ccc(F)cc3)c2)cc1 (stereo unspecified)          73.5
 2  Cn1cc(-c2nnc(N)nc2-c2c[nH]c3ccc(Br)cc23)c2cc(Br)cnc21          35.4
 3  COc1ccc2c(c1)c(/C=N/Nc1ccc3ccccc3n1)cn2C          81.8
 4  O=c1cc(-c2ccccc2)oc2cc(OCCCC[P+](c3ccccc3)(c3ccccc3)c3ccccc3)cc(O)c12         -94.1
 5  C=C1CC[C@@H]2[C@]3(C)COC(c4ccco4)O[C@@H]3CC[C@@]2(C)[C@@H]1C/C=C1/C(=O)OCC1OC(C)=O (stereo partly specified)          59.5
 6   COc1ccc([C@H](C)Nc2nc(Cl)nc3ccccc23)cc1          70.2
 7  Cc1ccc(-n2c(-c3cc4ccccc4nc3Cl)noc2=O)cc1          80.9
 8  CCCSc1nc(NCCc2c[nH]c3ccccc23)c(C#N)c(-c2ccc(OC)cc2)n1          75.5
 9  COc1ccc(-c2nnc3ccc(N/N=C/c4ccc(C)cc4)nn23)cc1           108
10   Cc1cc2nc3c4ccccc4n(CCNCCN(C)C)c3nc2cc1C          25.4
11  CCS(=O)(=O)N1CCCC(C(=O)Nc2nc3ccc(NC(=O)c4ccc(F)c(OC)c4F)cc3s2)C1 (stereo unspecified)          61.1
12  N/C(=N\N=C\c1ccc([N+](=O)[O-])cc1)c1c(N)nc(=S)[nH]c1-c1ccc(Cl)cc1Cl          93.4
13  O=c1[nH]c2ccccc2cc1CSc1nccc(-c2ccc3ccccc3c2)n1          84.5
14  COC1=C[C@]23CCC(=O)N2CCc2cc4c(cc2[C@@H]3[C@@H]1OC(=O)[C@H](C)O)OCO4          58.5
15  COc1ccc2c(c1)C(=N/N=C(\C)c1ccc(OC)c(S(N)(=O)=O)c1)C(=O)N2          92.6
16  CCOC(=O)c1ccc(Nc2nc(NN)nc(-c3ccc(OC)cc3)c2C#N)cc1           114
17  COc1cc(C2CC(c3cc(OC)c(OC)c(OC)c3)=NN2C(C)=O)ccc1OCc1ccccc1 (stereo unspecified)          21.3
18  Cn1cc(-c2cc3nc(-c4cn(C)c5ncc(Br)cc45)cc(N)n3n2)c2cc(Cl)ccc21           -76
19  Cc1cc(C)cc(C(=O)Nc2cccc(-c3cn(-c4ccc(S(N)(=O)=O)cc4)nn3)c2)c1          12.8
20  O=C(NN1C(=O)/C(=C/C=C/c2ccc([N+](=O)[O-])o2)SC1=S)c1ccccc1O         -86.9

====

- Test system: 786-0 renal
- assay.remarks: NCI-60 one-dose screen, 48 h (100 = growth as untreated, 0 = no growth, -100 = all killed)
- experimental.context: 10 µM unless noted
- Description: Cells are grown in 96 well plates and exposed to the test compound for 48 hours. Compounds are tested at a single concentration, which is 10^-5 M for most compounds. The reported endpoint is percent growth (GI% or GIPRCNT), where numbers from 0 - 100% represent growth inhibition, and numbers from -100% - 0 represent cell death. For example, a value of 40 represents 60% growth inhibition. A value of 0 means no net growth occurred over the course of the experiment. […]
This is part of a sample that, as a whole, favours compounds with a hit. Of some 83,000 tested, about 20% had one in any assay.
measured.endpoint: growth (%)

>>> print(df.to_string())
                               smiles_entry  measured_endpoint  result_units  assay_result
0  O=C(Cn1c(/C=C/c2ccccc2)nc2ccccc2c1=O)Nc1ccccc1             growth             %          1.52
1  Cn1cc(-c2cc3nc(-c4c[nH]c5ccc(Br)cc45)cc(N)n3n2)c2ccccc21             growth             %         -89.6
2  COc1ccc(-c2cc(C(=O)NCc3ccccc3)nn2-c2ccc(S(C)(=O)=O)cc2)cc1OC             growth             %          98.6
3  C/C(=N\N=C1/C(=O)Nc2ccccc21)c1ccc2c(c1)Nc1ccccc1S2             growth             %          71.4
4  COc1ccc2c(c1)c(-c1cc3nc(-c4cn(C)c5ncccc45)cc(N)n3n1)cn2C             growth             %           -92

====

- System: SF-539 CNS
- assay.remarks: NCI-60 one-dose screen, 48 h (100 = growth as untreated, 0 = no growth, -100 = all killed)
- experimental.context: 10 µM unless noted
The panel holds about 83,000 compounds, 20% with a hit somewhere; the sample as a whole holds those more often.
Listing: growth of selected compounds

compound	growth / %
CSc1ccc(NC(=O)c2ccc3nnn(/C(C#N)=C/c4ccccn4)c3c2)cc1	-99.3
O=C(COc1ccc(NC(=O)Nc2ccc(Cl)cc2)cc1)N/N=C/c1ccccc1	-95.3
Nc1nc(-c2ccccc2)c(N=Nc2ccc([N+](=O)[O-])cc2Cl)s1	96.5
COc1ccc(C(=O)/C=C/c2ccccc2Cl)cc1S(N)(=O)=O	97.5
Cc1ccccc1[C@H]1C(C(=O)c2ccc(Cl)cc2)C2(N[C@@H]1c1ccccc1)C(=O)Nc1ccccc12 (stereo partly specified)	-69.5
O=C1CCCc2cc(OCC(=O)N3CCCCC3)ccc2N1	101
Cc1cc(=O)oc2cc(OCCCCOc3ccc(/C=C/C(=O)Nc4ccccc4N)cc3)ccc12	53.1
CC1(C)CC[C@]2(C(=O)O)CC[C@]3(C)C(=CCC4[C@@]5(C)C[C@@H](O)[C@@H]6OC(c7ccccc7Br)OC[C@@]6(C)C5CC[C@]43C)C2C1 (stereo partly specified)	26.8
COc1ccc(/C=C/c2nc3ccccc3nc2Nc2cccc(C)c2)cc1	103
CCCCCCCCc1ccc(S(=O)(=O)Nc2ccc(CC)cc2C(=O)O)cc1	101
COc1ccc(/C=C/c2nc3ccccc3c(=O)n2CC(=O)Nc2ccc(Cl)cc2)cc1	-13
Cc1ccc([C@H]2C(C(=O)c3ccc(Cl)cc3)C3(N[C@@H]2c2ccccc2)C(=O)Nc2ccc(Cl)cc23)cc1 (stereo partly specified)	77
Cn1cc(-c2cc(N)n3nc(-c4c[nH]c5ccccc45)cc3n2)c2cccnc21	-81.5
COc1ccc2c(c1)c(/C=N/Nc1ccc3ccccc3n1)cn2C	-36.2
S=C(Nc1ccccc1)Nc1ccc(OCc2nc3ccccc3[nH]2)cc1	30.7
CCCCSc1nc(Nc2ccc(S(N)(=O)=O)cc2)c(C#N)c(-c2cc(OC)c(OC)c(OC)c2)n1	38.1
Cc1cnc(C(=O)NNc2nc3cc(F)ccc3n3c(C(=O)N4CC5CC(C4)N5)ccc23)cn1	8.21
CCOC(=O)C1=C(N)N(c2ccccc2)C2=C(C(=O)CC(C)(C)C2)C1c1ccc(N2CCOCC2)cc1 (stereo unspecified)	93
COc1ccc(-c2ccnc(SCc3cc4ccccc4[nH]c3=O)n2)cc1	50
CC(=O)c1cccc(NC(=O)CCC(=O)NS(=O)(=O)c2ccc(C)cc2)c1	105
C=C1CCC2C3(C)COC(c4ccc(F)cc4)OC3CCC2(C)C1C/C=C1/C(=O)OCC1O (stereo unspecified)	-85.5

All values here come from PubChem BioAssay (NCI).
